All values here come from patent US20200131132A1.

Molecular target: hFXR (Homo sapiens)
Experiment: In Vitro FXR Assay (TK)
Details: CV-1 cells transfected with hFXR, hRXR, TK-ECRE-luc and pCMX-YFP; compounds incubated 18 hrs; luminescence
observationType: EC50

Illustrative cases are given below, each with its answer.
>  <compound>
COc1ccc(-c2ccc(CN(C(=O)CC(C)(C)C)c3nccc4cc(COCCO)ccc34)cc2)cc1C

>  <recordedValue>
≤ 1 µM

$$$$
>  <compound>
COCc1ccc2c(N(Cc3ccc(-c4ccc(OC)c(C)c4)cc3)C(=O)CC(C)(C)C)nccc2c1

>  <recordedValue>
≤ 1 µM

$$$$
>  <compound>
COc1ccc(-c2ccc(CN(C(=O)CC(C)(C)C)c3nccc4cc(N5CCC(F)C5)ccc34)cc2)cc1C (stereo not drawn)

>  <recordedValue>
≤ 1 µM

$$$$
>  <compound>
COc1ccc(-c2ccc(CN(C(=O)CC(C)(C)C)c3nccc4cc(/C=C/CO)ccc34)cc2)cc1C

>  <recordedValue>
≤ 1 µM

$$$$
>  <compound>
COc1ccc(-c2ccc(CN(C(=O)CC(C)(C)C)c3nccc4cc(N5CC(CO)C5)ccc34)cc2)cc1C

>  <recordedValue>
≤ 1 µM

$$$$

Q: // query EC50 value for entry "COc1ccc(-c2ccc(CN(C(=O)CC(C)(C)C)c3nccc4cc(OCCN(C)C)ccc34)cc2)cc1C"
Result: 1 to 10 µM

Q: // query EC50 value for entry "COc1ccc(-c2ccc(CN(C(=O)CC(C)(C)C)c3nccc4c(Br)cccc34)cc2)cc1C"
Result: > 10 µM

Q: // query EC50 value for entry "COc1ccc(-c2ccc(CN(C(C)=O)c3nccc4cc(C(C)(C)O)ccc34)cc2)cc1C"
Result: > 10 µM

* * *

Target: hFXR (Homo sapiens)
Assay: In Vitro FXR Assay (TK)
Conditions: CV-1 cells transfected with hFXR, hRXR, TK-ECRE-luc and pCMX-YFP; compounds incubated 18 hrs; luminescence
Below: a set of entries, each annotated with reported EC50.

Illustrative cases are given below, each with its answer.
>  <compound>
COc1ccc(-c2ccc(CN(C(=O)CC(C)(C)C)c3nccc4ccc(Br)cc34)cc2)cc1C

>  <recordedValue>
≤ 1000 nM

$$$$
>  <compound>
COc1ccc(-c2ccc(CN(C(=O)CC(C)(C)C)c3nccc4c3CCCC4)cc2)cc1C

>  <recordedValue>
1000 to 10000 nM

$$$$
>  <compound>
COc1ccc(-c2ccc(CN(C(=O)CC(C)(C)C)c3nccc4cc(-c5ncco5)ccc34)cc2)cc1C

>  <recordedValue>
≤ 1000 nM

$$$$
>  <compound>
COc1ccc(-c2ccc(CN(C(=O)CC(C)(C)C)c3nccc4cc(CC#N)ccc34)cc2)cc1C

>  <recordedValue>
≤ 1000 nM

$$$$
>  <compound>
CCOc1ccc2c(N(Cc3ccc(-c4ccc(OC)c(C)c4)cc3)C(=O)CC(C)(C)C)nccc2c1

>  <recordedValue>
≤ 1000 nM

$$$$
>  <compound>
COc1ccc(-c2ccc(CN(C(=O)CC(C)(C)C)c3nccc4cc(C(=O)N(C)C)ccc34)cc2)cc1C

>  <recordedValue>
≤ 1000 nM

$$$$
>  <compound>
CCCOc1ccc2c(N(Cc3ccc(-c4ccc(OC)c(C)c4)cc3)C(=O)CC(C)(C)C)nccc2c1

>  <recordedValue>
≤ 1000 nM

$$$$
>  <compound>
COc1ccc(-c2ccc(CN(C(=O)CC(C)(C)C)c3nccc4cc(CO)ccc34)cc2)cc1C

>  <recordedValue>
≤ 1000 nM

$$$$

Q: // query EC50 value for entry "COC(=O)COCc1ccc2c(N(Cc3ccc(-c4ccc(OC)c(C)c4)cc3)C(=O)CC(C)(C)C)nccc2c1"
Result: ≤ 1000 nM

Q: // query EC50 value for entry "COc1ccc(-c2ccc(CN(C(=O)CC(C)(C)C)c3nccc4cc(/C=C\CO)ccc34)cc2)cc1C"
Result: ≤ 1000 nM

Q: // query EC50 value for entry COc1ccc(-c2ccc(CN(C(=O)CC(C)(C)C)c3nccc4cc(N5CCC(CO)C5)ccc34)cc2)cc1C (centres unmarked)
Result: ≤ 1000 nM

Q: // query EC50 value for entry "COc1ccc(-c2ccc(CN(C(=O)CC(C)(C)C)c3nccc4cc(C(C)(C)O)ccc34)cc2)cc1C"
Result: ≤ 1000 nM

Q: // query EC50 value for entry "COc1ccc(-c2ccc(CN(C(=O)CC(C)(C)C)c3nccc4cc(N5CCNCC5)ccc34)cc2)cc1C"
Result: 1000 to 10000 nM

Q: // query EC50 value for entry "COc1ccc(-c2ccc(CN(C(=O)CC(C)(C)C)c3nccc4cc(N5CCN(C)CC5)ccc34)cc2)cc1C"
Result: 1000 to 10000 nM

Q: // query EC50 value for entry COc1ccc(-c2ccc(CN(C(=O)CC(C)(C)C)c3nccc4cc(OC(C)CCO)ccc34)cc2)cc1C (centres unmarked)
Result: ≤ 1000 nM

Q: // query EC50 value for entry COc1ccc(-c2ccc(CN(C(=O)CC(C)(C)C)c3nccc4cc(OC5CCC(O)C5)ccc34)cc2)cc1C (centres unmarked)
Result: ≤ 1000 nM

Q: // query EC50 value for entry COc1ccc(-c2ccc(CN(C(=O)CC(C)(C)C)c3nccc4cc(N5CCC(OC)C5)ccc34)cc2)cc1C (centres unmarked)
Result: ≤ 1000 nM

Q: // query EC50 value for entry "COc1ccc(-c2ccc(CN(C(=O)CC(C)(C)C)c3nccc4cc(OCCCN(C)C)ccc34)cc2)cc1C"
Result: 1000 to 10000 nM

Q: // query EC50 value for entry "COCCOCc1ccc2c(N(Cc3ccc(-c4ccc(OC)c(C)c4)cc3)C(=O)CC(C)(C)C)nccc2c1"
Result: ≤ 1000 nM

Q: // query EC50 value for entry "COc1ccc(-c2ccc(CN(C(=O)CC(C)(C)C)c3nccc4cc(N5CCC5)ccc34)cc2)cc1C"
Result: ≤ 1000 nM

Q: // query EC50 value for entry "COc1ccc(-c2ccc(CN(C(=O)CC(C)(C)C)c3nccc4cc(OCCS(C)(=O)=O)ccc34)cc2)cc1C"
Result: ≤ 1000 nM

Q: // query EC50 value for entry "COCCOc1ccc2c(N(Cc3ccc(-c4ccc(OC)c(C)c4)cc3)C(=O)CC(C)(C)C)nccc2c1"
Result: ≤ 1000 nM

Q: // query EC50 value for entry COc1ccc(-c2ccc(CN(C(=O)CC(C)(C)C)c3nccc4cc(N5CCC(C#N)C5)ccc34)cc2)cc1C (centres unmarked)
Result: ≤ 1000 nM

Q: // query EC50 value for entry "COc1ccc(-c2ccc(CN(C(=O)CC(C)(C)C)c3nccc4cc(OCCCO)cnc34)cc2)cc1C"
Result: ≤ 1000 nM

Q: // query EC50 value for entry COc1ccc(-c2ccc(CN(C(=O)CC(C)(C)C)c3nccc4cc(N5CCC(O)C5)cnc34)cc2)cc1C (centres unmarked)
Result: ≤ 1000 nM

Q: // query EC50 value for entry "COc1ccc(-c2ccc(CN(C(=O)CC(C)(C)C)c3nccc4cccnc34)cc2)cc1C"
Result: ≤ 1000 nM

Q: // query EC50 value for entry "COc1ccc(-c2ccc(CN(C(=O)CC(C)(C)C)c3ccnc4ccccc34)cc2)cc1C"
Result: > 10000 nM

Q: // query EC50 value for entry COc1ccc(-c2ccc(CN(C(=O)CC(C)(C)C)c3nccc4cc(OCCC(C)O)ccc34)cc2)cc1C (centres unmarked)
Result: ≤ 1000 nM

Q: // query EC50 value for entry "COc1ncc(-c2ccc3c(N(Cc4ccc(-c5ccc(OC)c(C)c5)cc4)C(=O)CC(C)(C)C)nccc3c2)s1"
Result: 1000 to 10000 nM

* * *

Target: hFXR (Homo sapiens, UniProt Q96RI1)
Sequence (Q96RI1 whole entry): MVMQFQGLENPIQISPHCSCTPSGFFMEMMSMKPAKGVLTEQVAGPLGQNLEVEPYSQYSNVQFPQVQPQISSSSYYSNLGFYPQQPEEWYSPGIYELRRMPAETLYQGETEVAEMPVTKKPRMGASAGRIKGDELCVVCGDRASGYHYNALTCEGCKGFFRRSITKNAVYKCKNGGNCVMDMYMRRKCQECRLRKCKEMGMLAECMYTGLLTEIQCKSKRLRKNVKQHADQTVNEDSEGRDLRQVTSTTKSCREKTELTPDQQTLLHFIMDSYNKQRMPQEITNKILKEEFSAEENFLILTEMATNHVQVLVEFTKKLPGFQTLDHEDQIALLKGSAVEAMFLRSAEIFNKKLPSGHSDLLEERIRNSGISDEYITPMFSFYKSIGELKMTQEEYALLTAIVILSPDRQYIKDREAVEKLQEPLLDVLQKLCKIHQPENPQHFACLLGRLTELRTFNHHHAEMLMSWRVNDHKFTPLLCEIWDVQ
Sequence (P19793 whole entry partner): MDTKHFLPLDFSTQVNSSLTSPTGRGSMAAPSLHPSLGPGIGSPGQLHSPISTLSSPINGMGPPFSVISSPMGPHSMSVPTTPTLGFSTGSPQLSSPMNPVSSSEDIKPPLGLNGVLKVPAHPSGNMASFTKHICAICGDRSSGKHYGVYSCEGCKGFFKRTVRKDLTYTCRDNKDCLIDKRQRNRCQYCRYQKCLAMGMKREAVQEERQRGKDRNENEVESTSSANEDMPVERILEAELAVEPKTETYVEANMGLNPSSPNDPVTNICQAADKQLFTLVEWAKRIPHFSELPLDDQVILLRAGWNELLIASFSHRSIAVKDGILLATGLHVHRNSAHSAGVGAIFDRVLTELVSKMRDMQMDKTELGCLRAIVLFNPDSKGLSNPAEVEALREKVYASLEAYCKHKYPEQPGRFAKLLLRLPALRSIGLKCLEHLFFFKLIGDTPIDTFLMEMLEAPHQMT
Assay: In Vitro FXR Assay (TK)
Settings: CV-1 cells transfected with hFXR, hRXR, TK-ECRE-luc and pCMX-YFP; compounds incubated 18 hrs; luminescence
pEC50: −log10 of the molar value.
Below: a set of entries, each annotated with reported pEC50.

>  <compound>
COCCCOc1ccc2c(N(Cc3ccc(-c4ccc(OC)c(C)c4)cc3)C(=O)CC(C)(C)C)nccc2c1

>  <pEC50>
≥ 6.00

$$$$
>  <compound>
COc1ccc(-c2ccc(CN(C(=O)CC(C)(C)C)c3nccc4cc(OC5CN(C(=O)OC(C)(C)C)C5)ccc34)cc2)cc1C

>  <pEC50>
< 5.00

$$$$
>  <compound>
COc1ccc(-c2ccc(CN(C(=O)CC(C)(C)C)c3nccc4cc(N5CCC(CCO)C5)ccc34)cc2)cc1C (stereo not shown)

>  <pEC50>
≥ 6.00

$$$$

Now consider the entry below.
Q: // query pEC50 value for entry "COc1ccc(-c2ccc(CN(C(=O)CC(C)(C)C)c3cncc4ccccc34)cc2)cc1C"
Result: 5.00 to 6.00
